assay: Pharmacokinetics of 4b and 6-I in mice (blood concentration-time); assay type: in vivo, C57BL/6j mice; conditions: male, C57BL/6, mouse, in vivo, ip, 1 mg/kg
Counter-ions that a name gives are not always drawn.
measure name: Cmax

1. CCCC1O[C@@H]2C[C@H]3[C@@H]4C[C@H](F)C5=CC(=O)C=C[C@]5(C)[C@@]4(F)[C@@H](O)C[C@]3(C)[C@]2(C(=O)CN)O1 (stereo partly shown) [Compound 4b, trifluoroacetic Acid Salt] :: 39.4 ng/mL

----------
molecular target: UniProtKB P04150
Structures can show the parent of a compound that is named as a salt.
measure name: IC50

1. CC(C)C(=O)OCC(=O)[C@@]12OC(CCN)O[C@@H]1C[C@H]1[C@@H]3CCC4=CC(=O)C=C[C@]4(C)[C@H]3[C@@H](O)C[C@@]12C (stereo partly drawn) :: < 10 nM
2. CCCC1O[C@@H]2C[C@H]3[C@@H]4C[C@H](F)C5=CC(=O)C=C[C@]5(C)[C@@]4(F)[C@@H](O)C[C@]3(C)[C@]2(C(=O)CN)O1 (stereo partly drawn) [11-19 R/S, trifluoroacetic acid salt] :: < 10 nM
3. CCCC1O[C@@H]2C[C@H]3[C@@H]4CCC5=CC(=O)C=C[C@]5(C)[C@H]4[C@@H](O)C[C@]3(C)[C@]2(C(=O)CN(C)C)O1 (stereo partly drawn) :: < 10 nM

----------
molecular target: human liver cathepsin B (Homo sapiens (Human), UniProt P07858); assay: Linker-payload cleavage in Cathepsin B assay; assay type: biochemical; details: without CA074; 4 hr incubation with Cathepsin B; Mean
measure name: Conversion rate (%)

1. CCCC1O[C@@H]2C[C@H]3[C@@H]4C[C@H](F)C5=CC(=O)C=C[C@]5(C)[C@@]4(F)[C@@H](O)C[C@]3(C)[C@]2(C(=O)COc2ccc(NC(=O)OCc3ccc(NC(=O)[C@H](CCCNC(N)=O)NC(=O)[C@@H](NC(=O)[C@@H](N)CCCCNC(=O)COC4C#CCCCCC4)C(C)C)cc3)cc2)O1 (stereo partly shown) :: 29.0
2. CCCC1O[C@@H]2C[C@H]3[C@@H]4C[C@H](F)C5=CC(=O)C=C[C@]5(C)[C@@]4(F)[C@@H](O)C[C@]3(C)[C@]2(C(=O)COc2ccc(NC(=O)[C@H](C)NC(=O)[C@@H](NC(=O)[C@@H](N)CCCCNC(=O)COC3C#CCCCCC3)C(C)C)cc2)O1 (stereo partly shown) :: 22.72
3. CCCC1O[C@@H]2C[C@H]3[C@@H]4C[C@H](F)C5=CC(=O)C=C[C@]5(C)[C@@]4(F)[C@@H](O)C[C@]3(C)[C@]2(C(=O)CNC(=O)OCc2ccc(NC(=O)[C@H](CCCNC(N)=O)NC(=O)[C@@H](NC(=O)[C@@H](N)CCCCNC(=O)COC3C#CCCCCC3)C(C)C)cc2)O1 (stereo partly shown) :: 48.20
4. CCCC1O[C@@H]2C[C@H]3[C@@H]4C[C@H](F)C5=CC(=O)C=C[C@]5(C)[C@@]4(F)[C@@H](O)C[C@]3(C)[C@]2(C(=O)CNC(=O)OCc2ccc(NC(=O)[C@H](CCCNC(N)=O)NC(=O)[C@@H](NC(=O)CCOCCOCCOCCOCCNC(=O)CCC(=O)N3Cc4ccccc4C#Cc4ccccc43)C(C)C)cc2)O1 (stereo partly shown) :: 20.8

----------
What follows is a collection of IC50 values obtained with Glucocorticoid Receptor (GR) (Homo sapiens (Human), UniProt P04150).
Sequence (P04150 524-758): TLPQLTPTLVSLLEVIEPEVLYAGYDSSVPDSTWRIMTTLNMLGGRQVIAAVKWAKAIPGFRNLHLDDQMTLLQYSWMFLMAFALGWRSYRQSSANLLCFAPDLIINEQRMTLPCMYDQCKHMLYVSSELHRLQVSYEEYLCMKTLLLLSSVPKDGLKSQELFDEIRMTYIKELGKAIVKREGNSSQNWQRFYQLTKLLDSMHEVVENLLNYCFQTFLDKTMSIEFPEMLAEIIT
measure name: IC50

1) [2H]c1c([2H])c(OCC(=O)[C@@]23OC(CCC)O[C@@H]2C[C@H]2[C@@H]4C[C@H](F)C5=CC(=O)C=C[C@]5(C)[C@@]4(F)[C@@H](O)C[C@@]23C)c([2H])c([2H])c1N (stereo partly drawn) [Compound 6-ID] :: < 10 nM
2) CCCC1O[C@@H]2C[C@H]3[C@@H]4CCC5=CC(=O)C=C[C@]5(C)[C@@]4(F)[C@@H](O)C[C@]3(C)[C@]2(C(=O)CN)O1 (stereo partly drawn) [Compound 4h] :: 10 to 50 nM
3) CCC[C@@H]1O[C@@H]2C[C@H]3[C@@H]4C[C@H](F)C5=CC(=O)C=C[C@]5(C)[C@@]4(F)[C@@H](O)C[C@]3(C)[C@]2(C(=O)COc2ccc(N)cc2)O1 [Compound R-6-I] :: < 10 nM

----------
test: Solubility in water and DMSO/water; conditions: 30% DMSO in water, aqueous with cosolvent or surfactant or cyclodextrin
measure name: solubility (µg/mL)

1. CCC[C@@H]1O[C@@H]2C[C@H]3[C@@H]4CCC5=CC(=O)C=C[C@]5(C)[C@H]4[C@@H](O)C[C@]3(C)[C@]2(C(=O)COc2ccc(NC(=O)[C@H](C)NC(=O)[C@@H](NC(=O)CCOCCOCCOCCOCCNC(=O)CCC(=O)N3Cc4ccccc4C#Cc4ccccc43)C(C)C)cc2)O1 :: 70

----------
test system: GR activation in 293/PRLR/GRE-Luc cells (HEK293/9xUAS-Luc2P/pBind-GR/PRLR-HA high cells); assay: GR co-activator luciferase reporter cell based assay in 293/PRLR/GRE-Luc cells; set-up: species or system human; conditions: fold activation vs Budesonide
measure name: HEK293/9xUAS-Luc2P/pBind-GR/PRLR-HA high cells activation relative to Budesonide

1) CCCC1O[C@@H]2C[C@H]3[C@@H]4C[C@H](F)C5=CC(=O)C=C[C@]5(C)[C@@]4(F)[C@@H](O)C[C@]3(C)[C@]2(C(=O)COc2ccc(N)cc2)O1 (stereo partly shown) [Compound 6-I] :: Full
2) CCCC1O[C@@H]2C[C@H]3[C@@H]4C[C@H](F)C5=CC(=O)C=C[C@]5(C)[C@@]4(F)[C@@H](O)C[C@]3(C)[C@]2(C(=O)CNc2ccc(N)cc2)O1 (stereo partly shown) [Compound 5-I] :: Full
3) CCCC1O[C@@H]2C[C@H]3[C@@H]4CCC5=CC(=O)C=C[C@]5(C)[C@@]4(F)[C@@H](O)C[C@]3(C)[C@]2(C(=O)CN)O1 (stereo partly shown) [Compound 4h] :: Full

----------
Test system: GR activation in 293/PRLR/GRE-Luc cells (HEK293/9xUAS-Luc2P/pBind-GR/PRLR-HA high cells)
Test: GR co-activator luciferase reporter cell based assay in 293/PRLR/GRE-Luc cells
Design: species or system human
Details: fold activation vs Budesonide
From the text: Bioassays described herein were used to assess the efficacy of free steroids and anti-PRLR-ncADCs. In one example, the bioassay assessed the activity of steroids, after internalization of a site-specific anti-PRLR-GC steroid ADC into cells, to bind to pBIND-GR and subsequent luciferase reporter activation. […]
Structures can show the parent of a compound that is named as a salt.
measure name: HEK293/9xUAS-Luc2P/pBind-GR/PRLR-HA high cells activation relative to Budesonide

1) CCCC1O[C@@H]2C[C@H]3[C@@H]4C[C@H](F)C5=CC(=O)C=C[C@]5(C)[C@@]4(F)[C@@H](O)C[C@]3(C)[C@]2(C(=O)CN)O1 (some centres unmarked) [Compound 4b, trifluoroacetic Acid Salt] :: Full
2) CCCC1O[C@@H]2C[C@H]3[C@@H]4C[C@H](F)C5=CC(=O)C=C[C@]5(C)[C@@]4(F)[C@@H](O)C[C@]3(C)[C@]2(C(=O)COc2ccc(N)c(OC)c2)O1 (some centres unmarked) [Compound 6-II] :: Full
3) [2H]c1c([2H])c(OCC(=O)[C@@]23OC(CCC)O[C@@H]2C[C@H]2[C@@H]4C[C@H](F)C5=CC(=O)C=C[C@]5(C)[C@@]4(F)[C@@H](O)C[C@@]23C)c([2H])c([2H])c1N (some centres unmarked) [Compound 6-ID] :: Full
4) CCC[C@@H]1O[C@@H]2C[C@H]3[C@@H]4C[C@H](F)C5=CC(=O)C=C[C@]5(C)[C@@]4(F)[C@@H](O)C[C@]3(C)[C@]2(C(=O)COc2ccc(N)cc2)O1 [Compound R-6-I] :: Full
5) CCC[C@H]1O[C@@H]2C[C@H]3[C@@H]4C[C@H](F)C5=CC(=O)C=C[C@]5(C)[C@@]4(F)[C@@H](O)C[C@]3(C)[C@]2(C(=O)COc2ccc(N)cc2)O1 [Compound S-6-I] :: Full

----------
system: GR activation in 293/PRLR/GRE-Luc cells (HEK293/9xUAS-Luc2P/pBind-GR/PRLR-HA high cells); test: GR co-activator luciferase reporter cell based assay in 293/PRLR/GRE-Luc cells; design: species or system human; conditions: 293/PRLR/GRE-Luc cells, 72 hours; read-out: EC50 of GRE-Luc activation
pEC50: −log10 of the molar value.
Items are presented alongside their recorded pEC50.
measure name: pEC50

1. C[C@]12C=CC(=O)C=C1CC[C@@H]1[C@@H]2[C@@H](O)C[C@@]2(C)[C@H]1C[C@H]1O[C@@H](c3ccc(N)cc3)O[C@]12C(=O)CO :: 7.00 to 8.00
2. CCCC1O[C@@H]2C[C@H]3[C@@H]4CCC5=CC(=O)C=C[C@]5(C)[C@H]4[C@@H](O)C[C@]3(C)[C@]2(C(=O)CO)O1 (some centres unmarked) [Budesonide, budesonide, reference compound] :: > 8.00

Where do these numbers come from? They come from patent US11760775B2.
